// data source = ChEMBL document CHEMBL1155574

Assay: Toxicity against mouse erythrocytes assessed as hemolytic activity
Assay type: cell-based, Erythrocyte
Conditions: read-out: ED50 (the source's name)
Readout Kind: HC50 (µM)
Form entry: value (µM) — number only.

Item: CC(C)[C@H](O)C(=O)C[C@@H](C)[C@H]1CC[C@H]2[C@@H]3C[C@H](O)[C@H]4C[C@@H](OS(=O)(=O)O)CC[C@]4(C)C3=CC[C@]12C [APHELAKETOTRIOL] | HC50: 40

Item: CC(C)[C@H](O)C(=O)C[C@@H](C)[C@H]1CC[C@H]2[C@@H]3C[C@H](O[C@H]4O[C@@H](C)[C@H](OS(=O)(=O)O)[C@@H](O)[C@@H]4O)[C@H]4C[C@@H](OS(=O)(=O)O)CC[C@]4(C)C3=CC[C@]12C [APHELASTEROSIDE C] | HC50: 190

Item: CC(=O)[C@H]1CC[C@H]2[C@@H]3C[C@H](O[C@H]4O[C@@H](C)[C@H](O)[C@@H](O)[C@@H]4O)[C@H]4C[C@@H](OS(=O)(=O)O)CC[C@]4(C)C3=CC[C@]12C [FORBESIDE E3] | HC50: 330

Item: CC(=O)[C@H]1CC[C@H]2[C@@H]3C[C@H](O[C@H]4O[C@@H](C)[C@H](OS(=O)(=O)O)[C@@H](O)[C@@H]4O)[C@H]4C[C@@H](OS(=O)(=O)O)CC[C@]4(C)C3=CC[C@]12C [CHELIFEROSIDE L1] | HC50: 175

Item: CC(C)CC(=O)C[C@](C)(O)[C@H]1CC[C@H]2[C@@H]3C[C@H](O)[C@H]4C[C@@H](OS(=O)(=O)O)CC[C@]4(C)C3=CC[C@@]21C [3-O-SULFOTHORNASTEROL A] | HC50: 110
